src = patent US7375098B2

Target: ERα (Homo sapiens)
Construct: pSG5-ERα/β FL (Heg0/ERβ0); expressed in transfected cells; host or cells: U-20S (U-2 OS) cells, transient transfection with FuGENE 6
Sequence (P03372 whole entry): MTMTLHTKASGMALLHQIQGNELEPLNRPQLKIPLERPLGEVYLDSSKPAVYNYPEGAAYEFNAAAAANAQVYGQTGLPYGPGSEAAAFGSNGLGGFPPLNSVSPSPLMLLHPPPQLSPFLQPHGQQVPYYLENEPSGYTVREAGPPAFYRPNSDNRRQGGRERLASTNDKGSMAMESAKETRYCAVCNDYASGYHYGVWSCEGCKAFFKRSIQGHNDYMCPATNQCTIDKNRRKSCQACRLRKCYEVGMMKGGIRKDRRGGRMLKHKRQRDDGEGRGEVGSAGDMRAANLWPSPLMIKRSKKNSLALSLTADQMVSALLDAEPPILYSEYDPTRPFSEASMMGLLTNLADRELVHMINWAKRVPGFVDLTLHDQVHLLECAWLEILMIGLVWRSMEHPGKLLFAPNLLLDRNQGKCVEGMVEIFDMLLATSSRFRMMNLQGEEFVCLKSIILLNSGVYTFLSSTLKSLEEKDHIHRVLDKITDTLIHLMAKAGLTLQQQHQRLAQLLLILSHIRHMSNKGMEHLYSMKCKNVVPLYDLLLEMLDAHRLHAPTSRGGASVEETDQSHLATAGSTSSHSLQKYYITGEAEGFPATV
Test: Transactivation test for estrogenic agonists and antagonists, ERα, U-20S cells, luciferase reporter
Type: cell-based
Conditions: U-20S cells, luciferase activity
Description: Transactivation Test for Estrogenic Agonists and Antagonists Cultivation of Cells: The resuspension of the cells is carried out in 10 ml of D-MEM+5% CCS+PSG. Dissemination of 100 μl of cell suspension (1×10^4 cells) per well. 6 hours after the dissemination, the transfection takes place. […] The 10^−3M DMSO solutions are stored at −20° C. and must be readily dissolved before the removal (15 minutes, 37° C.). […]
# Efficacy[%] ERα >= 80% gives met, anything below gives not met

stdin: Given C=C[C@@]12CCc3cc(O)ccc3C1[C@@H](CCCCCC)C[C@@]1(C)C2CC[C@@H]1O (some centres unmarked) [reference compound] , state whether its Efficacy[%] ERα is at least 80%.
stdout: not met

stdin: Moving on to the next compound: C=C[C@@]12CCc3cc(O)ccc3C1[C@@H](CCCCC[C@H](O)C(F)(F)F)C[C@@]1(C)C2CC[C@@H]1O (mixture of isomers) [15b D1/2]
stdout: not met

stdin: Moving on to the next compound: C=C[C@@]12CCc3cc(O)ccc3[C@H]1[C@@H](CCCCCCNC)C[C@@]1(C)[C@H]2CC[C@@H]1O [Compound 24b]
stdout: met

stdin: Moving on to the next compound: C=C[C@@]12CCc3cc(O)ccc3[C@H]1[C@@H](CCCCCN1CCCC1)C[C@@]1(C)[C@H]2CC[C@@H]1O [Compound 26a]
stdout: met

stdin: Moving on to the next compound: C=C[C@@]12CCc3cc(O)ccc3[C@H]1[C@@H](CCCCC(O)C(F)(F)F)C[C@@]1(C)[C@H]2CC[C@@H]1O (single isomer, unassigned) [15a D2]
stdout: met

stdin: Moving on to the next compound: C=C[C@@]12CCc3cc(O)ccc3[C@H]1[C@@H](CCCCCSC#N)C[C@@]1(C)[C@H]2CC[C@@H]1O
stdout: met

stdin: Moving on to the next compound: C=C[C@@]12CCc3cc(O)ccc3[C@H]1[C@@H](CCCCCC(O)(C(F)(F)F)C(F)(F)F)C[C@@]1(C)[C@H]2CC[C@@H]1O [Compound 18b]
stdout: met

* * *

Please respond with reported Emax for every item in the list.
biological target: ERβ (Homo sapiens, UniProt Q92731); construct: pSG5-ERα/β FL (Heg0/ERβ0); expressed in transfected cells; host or cells: U-20S (U-2 OS) cells, transient transfection with FuGENE 6; assay: Transactivation test for estrogenic agonists and antagonists, ERβ, U-20S cells, luciferase reporter; type: cell-based; settings: U-20S cells, luciferase activity; read-out: Efficacy[%] ERβ
Sequence (Q92731 whole entry, species assumed): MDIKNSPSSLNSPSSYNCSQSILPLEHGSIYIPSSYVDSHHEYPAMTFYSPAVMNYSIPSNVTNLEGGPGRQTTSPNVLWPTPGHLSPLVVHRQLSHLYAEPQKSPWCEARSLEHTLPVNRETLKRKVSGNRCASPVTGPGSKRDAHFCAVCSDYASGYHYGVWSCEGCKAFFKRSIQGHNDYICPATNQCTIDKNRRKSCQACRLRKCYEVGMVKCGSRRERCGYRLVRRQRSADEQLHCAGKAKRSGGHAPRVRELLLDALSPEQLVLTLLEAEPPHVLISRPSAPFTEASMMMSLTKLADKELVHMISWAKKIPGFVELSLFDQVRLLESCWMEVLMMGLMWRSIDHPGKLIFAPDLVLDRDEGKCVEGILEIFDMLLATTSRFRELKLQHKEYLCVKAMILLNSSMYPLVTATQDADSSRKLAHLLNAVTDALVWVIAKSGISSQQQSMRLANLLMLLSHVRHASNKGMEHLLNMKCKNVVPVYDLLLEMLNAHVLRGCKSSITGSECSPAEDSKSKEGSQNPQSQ
Note: unit % is implicit; provide only the numeric part.

stdin: Given the molecule C=C[C@@]12CCc3cc(O)ccc3[C@H]1[C@@H](CCCCCC(O)(C(F)(F)F)C(F)(F)F)C[C@@]1(C)[C@H]2CC[C@@H]1O [Compound 18b] , what is its reported Emax?
stdout: 100

stdin: Moving on to the next molecule: C=C[C@@]12CCc3cc(O)ccc3[C@H]1[C@@H](CCCCCN1CCCC1)C[C@@]1(C)[C@H]2CC[C@@H]1O [Compound 26a]
stdout: 100

stdin: Moving on to the next molecule: C=C[C@@]12CCc3cc(O)ccc3[C@H]1[C@@H](CCCCC(O)C(F)(F)F)C[C@@]1(C)[C@H]2CC[C@@H]1O (single isomer, unassigned) [15a D2]
stdout: 100

stdin: Moving on to the next molecule: C=C[C@@]12CCc3cc(O)ccc3C1[C@@H](CCCCC(O)C(F)(F)F)C[C@@]1(C)C2CC[C@]1(C)O (single isomer, unassigned) [45a D2]
stdout: 100

stdin: Moving on to the next molecule: C=C[C@@]12CCc3cc(O)ccc3[C@H]1[C@@H](CCCCCCNC)C[C@@]1(C)[C@H]2CC[C@@H]1O [Compound 24b]
stdout: 99

stdin: Moving on to the next molecule: C=C[C@@]12CCc3cc(O)ccc3C1[C@@H](CCCCC[C@H](O)C(F)(F)F)C[C@@]1(C)C2CC[C@@H]1O (mixture of isomers) [15b D1/2]
stdout: 100
